Molecular target: DLG1 PDZ2 (Homo sapiens, UniProt Q12959)
Construct: human DLG1 PDZ2 aa 311–407 in a modified pRSET vector 40; made in house; host or cells: E. coli BL21 Gold (DE3)
Sequence (Q12959 311-407): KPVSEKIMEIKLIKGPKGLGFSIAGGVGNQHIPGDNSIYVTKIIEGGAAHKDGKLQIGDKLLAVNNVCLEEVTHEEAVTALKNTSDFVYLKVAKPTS
Experiment: Phosphomimetic ProP-PD selection with NGS
Assay type: binding
Settings: mean of selections 1-3; bait DLG1 PDZ2; phosphomimetic peptide
Experimental: Phage selections were carried out for four rounds following a protocol by Huang and Sidhu (Huang & Sidhu, 2011) with minor modifications. Non‐specific binding phage was removed by pre‐selections against immobilized GST throughout the selection. […] The naïve library and the enriched phage pools of the third day of selection were amplified and barcoded by PCR and analyzed by NGS as described elsewhere (McLaughlin & Sidhu, 2013; Ivarsson et al, 2014). […]
Result Type: Mean fraction #NGS counts mimetic peptide / total count selection

HEIKQSTAV: 0
GEGGRQSVV: 9.343e-5
RSEMKPGFV: 0
EGSYLVTSV: 0.0002179
KREFIESNV: 0.0001273
KPERISTVV: 0.001492

1: RIESLESEV
2: EIKLKTSFF
Q. Quick one: lower Mean fraction #NGS counts mimetic peptide / total count selection, 1 or 2 ? Which one? Tell me its label.
A. 1
(1: 0.000103, 2: 0.002811)

====

test system: Scribble PDZ2; test: Phosphomimetic ProP-PD selection with NGS; type: binding, human; settings: mean over selections; bait Scribble PDZ2
Result Type: Mean fraction #NGS counts mimetic peptide / total count selection
Just the number, please, no unit after it.

In the examples that follow, each entry is paired with its recorded Mean fraction #NGS counts mimetic peptide / total count selection.
VVSERISEV: 0.0003798
TMFLRETEL: 0.1922
SGEYLVTEV: 0.001329
WVDSYYTEL: 0.002879
RGLESATEL: 0.001519

--- query ---
Q. What value of measured Mean fraction #NGS counts mimetic peptide / total count selection is listed for VVHTPETEV ?
A. 0.0009495

====

biological target: DLG1 PDZ2 (Homo sapiens, UniProt Q12959); construct: human DLG1 PDZ2 aa 311–407 in a modified pRSET vector 40; made in house; host or cells: E. coli BL21 Gold (DE3); test: Phosphomimetic ProP-PD selection with NGS; format: binding; conditions: mean of selections 1-3; bait DLG1 PDZ2
Result Type: Mean fraction #NGS counts mimetic peptide / total count selection

Illustrative cases are given below, each with its answer.
VVHTPETEV: 5.021e-5
HSIKQETAV: 0.01768
MRLQEETEV: 0.0001421
YPAEPDSWV: 0

1: MRLQSETEV
2: LPKIKEETV
3: LRLQSETEV
4: RREEYSTTV
5: SSGEQHTNV
Q. Ordering: ascending Mean fraction #NGS counts mimetic peptide / total count selection. Hello, could you send the labels back in the order asked? Thank you.
A. 2, 5, 4, 3, 1
(2: 0, 5: 5.744e-6, 4: 1.723e-5, 3: 7.62e-5, 1: 0.0002982)

P: MRLQEETSV
Q: LKSGRDSTV
Q. Between the two listed entries P and Q , which has its Mean fraction #NGS counts mimetic peptide / total count selection at the higher number? Write down the label attached to your selection.
A. P

A: RPLRRESEI
B: GLMKRRSEV
C: HEIKQETAV
Q. Sequence the entries by Mean fraction #NGS counts mimetic peptide / total count selection, beginning with the highest number. Output the labels ranked as instructed.
A. C, B, A
(C: 0.0002182, B: 6.06e-5, A: 0)

A: SGEYLVTSV
B: TRLEQHTDV
Q. Of A and B , whose reported Mean fraction #NGS counts mimetic peptide / total count selection is the larger number? Write down the label attached to your selection.
A. B
(B: 6.6203e-5, A: 0)
